Cited source for all entries: patent EP4692071A1

Assay: 35°C color optical density (A35): absorbancy difference ε(240)-ε(0) after 240 s light irradiation at 35°C
Assay type: physicochemical
Conditions: cured product by kneading method, 1 mm, 240 s irradiation
Source text: • [1] Maximum Absorption Wavelength (λmax): The maximum absorption wavelength after color development, measured using a spectrophotometer (instantaneous multichannel photodetector MCPD3000) manufactured by Otsuka Electronics Co., Ltd. was used as an indicator for the color tone during the color development. • [2] […]
Items are presented alongside their recorded A35 (-).

compound: CCCC1(CCC)c2ccccc2-c2c1c1c(c3cc(OC)c(N(C)c4ccccc4)cc23)OC(c2ccc(OC)cc2)(c2ccc(OC)cc2)C=C1
result: 0.77 -
//
compound: CCCCCCOc1ccc(C2(c3ccc(OC)cc3)C=Cc3c4c(c5cc(N(c6ccc(C)cc6)c6ccc(OC)cc6)c(OC)cc5c3O2)-c2ccccc2C42CC(C)(C)CC(C)(C)C2)cc1 (stereo not drawn)
result: 0.76 -

Pending compound:
Given the compound CCCOc1ccc(C2(c3ccc(OC)cc3)C=Cc3c4c(c5cc(N(C)c6ccccc6)c(C)cc5c3O2)-c2ccc(C)cc2C4(CCCCOC)CCCCOC)cc1 (stereo not drawn) , write its reported A35 (-).
0.75 -

----------
Experiment: Maximum absorption wavelength (λmax) after color development, spectrophotometer MCPD3000
Assay type: physicochemical
Conditions: photochromic laminate by coating method, 40 µm photochromic layer on thiourethane lens, 0.25 mmol compound per 100 g monomers
test.readout: Maximum absorption wavelength (nm)

molecule: COc1ccc(C2(c3ccc(OC)cc3)C=Cc3c4c(c5cc(N6CCOc7ccccc76)c(OC)cc5c3O2)-c2ccccc2C4(C)C)cc1 [Example 19 Formula (83)]
readout.number: 515

molecule: CCCCN(c1ccc(F)cc1)c1cc2c3c(c4c(c2cc1OC)OC(c1ccc(OC)cc1)(c1ccc(OC)cc1)C=C4)C(CCCCOC)(CCCCOC)c1ccccc1-3 [Example 16 Formula (77)]
readout.number: 498

molecule: CCCC1(CCC)c2ccccc2-c2c1c1c(c3cc(OC)c(N4CCOc5ccccc54)cc23)OC(c2ccc(OC)cc2)(c2ccc(OC)cc2)C=C1 [Example 10 Formula (59)]
readout.number: 510

molecule: CCCCCCC1(CCCCCC)c2cc(Oc3ccccc3)ccc2-c2c1c1c(c3cc(OC)c(N(c4ccccc4)c4ccc(C)cc4)cc23)OC(c2ccc(OC)cc2)(c2ccc(OCCCC)cc2)C=C1 (stereo not drawn) [Example 52 Formula (119)]
readout.number: 518

molecule: COc1ccc(C2(c3ccc(N4CCOCC4)cc3)C=Cc3c4c(c5cc(N6CCOc7ccccc76)c(C)cc5c3O2)-c2ccc(OC)cc2C4(CCCCF)CCCCF)cc1 (stereo not drawn) [Example 47 Formula (102)]
readout.number: 521

molecule: CCCCOc1ccc(C2(c3ccc(OC)cc3)C=Cc3c4c(c5cc(N(C)c6ccccc6)c(OC)cc5c3O2)-c2ccc(-c3ccc(C(C)(C)C)cc3)cc2C4(CC)CC)cc1 (stereo not drawn) [Example 45 Formula (94)]
readout.number: 506

molecule: CCCCC1(CCCC)c2cc([Si](C)(C)C(C)(C)C)ccc2-c2c1c1c(c3cc(OC)c(N(CC)c4ccccc4)cc23)OC(c2ccc(OC)cc2)(c2ccc(OCCC)cc2)C=C1 (stereo not drawn) [Example 46 Formula (99)]
readout.number: 504

molecule: COCCCCC1(CCCCOC)c2ccccc2-c2c1c1c(c3cc(C)c(N(C)c4ccccc4)cc23)OC(c2ccc(C)cc2)(c2ccc(OC)cc2)C=C1 (stereo not drawn) [Example 5 Formula (43)]
readout.number: 442

molecule: CCCC1(CCC)c2ccccc2-c2c1c1c(c3cc(OC)c(N(C)c4ccccc4)cc23)OC(c2ccc(OC)cc2)(c2ccc(OC)cc2)C=C1 [Example 3 Formula (32)]
readout.number: 498

molecule: CCCCN(c1ccccc1)c1cc2c3c(c4c(c2cc1OC)OC(c1ccc(OC)cc1)(c1ccc(OCCC)cc1)C=C4)C(CC)(CC)c1cc(OC(F)(F)F)ccc1-3 (stereo not drawn) [Example 51 Formula (117)]
readout.number: 501

molecule: CCCCC1(CCCC)c2ccccc2-c2c1c1c(c3cc(OC)c(N(c4ccc(F)cc4)c4ccc(F)cc4)cc23)OC(c2ccc(OC)cc2)(c2ccc(OC)cc2)C=C1 [Example 12 Formula (66)]
readout.number: 501

molecule: CCCC1(CCC)c2ccccc2-c2c1c1c(c3cc(OC)c(N(c4ccccc4)c4ccc(C)cc4)cc23)OC(c2ccc(OC)cc2)(c2ccc(OC)cc2)C=C1 [Example 13 Formula (68)]
readout.number: 512

molecule: CCCOc1ccc(C2(c3ccc(OCCC)cc3)C=Cc3c4c(c5cc(N(c6ccc(C)cc6)c6ccc(C)cc6)c(OC)cc5c3O2)-c2ccccc2C4(CCCCOCOC)CCCCOCOC)cc1 [Example 14 Formula (71)]
readout.number: 521

molecule: COc1ccc(C2(c3ccc(N4CCOCC4)cc3)C=Cc3c4c(c5cc(N6CCCc7ccccc76)c(OC)cc5c3O2)-c2ccc(C)cc2C4(CCCC(F)(F)F)CCCC(F)(F)F)cc1 (stereo not drawn) [Example 8 Formula (54)]
readout.number: 545

molecule: COc1ccc(C2(c3ccc(OC)cc3)C=Cc3c4c(c5cc(N6CCc7ccccc7C6)c(OC)cc5c3O2)-c2ccccc2C4(C)C)cc1 [Formula (F), reference compound]
readout.number: 481
